Target: SARS-COV-2 RBD extracellular domain expressed with a C-terminal mouse IgG2a Fc (SARS-CoV-2)
Assay: Biacore SPR, mAb captured on anti-hFc, 25 C
What kon was measured for each of the following?
Report as a plain number; the unit M⁻¹ s⁻¹ is understood.

Data request: Would you mind telling me what kon value was observed for mAb15166 (antibody, V domains shown) VH: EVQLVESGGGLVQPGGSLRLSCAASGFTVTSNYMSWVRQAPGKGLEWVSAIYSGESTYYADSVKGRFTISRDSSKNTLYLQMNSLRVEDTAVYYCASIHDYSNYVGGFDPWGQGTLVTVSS VL: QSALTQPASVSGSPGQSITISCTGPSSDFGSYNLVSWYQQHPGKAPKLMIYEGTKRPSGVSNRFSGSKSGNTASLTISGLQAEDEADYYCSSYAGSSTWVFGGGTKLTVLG ?
Data returned: 1.02e+06

Data request: What would you report for mAb14285 (antibody, V domains shown) VH: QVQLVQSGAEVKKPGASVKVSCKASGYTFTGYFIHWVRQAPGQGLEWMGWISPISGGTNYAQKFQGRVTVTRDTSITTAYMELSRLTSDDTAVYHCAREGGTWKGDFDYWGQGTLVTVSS VL: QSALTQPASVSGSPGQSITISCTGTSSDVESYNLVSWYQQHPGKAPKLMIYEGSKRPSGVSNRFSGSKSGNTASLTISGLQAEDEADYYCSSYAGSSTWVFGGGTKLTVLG ?
Data returned: 5.78e+06
